Items are presented alongside their recorded melting point.

compound smiles: Cc1cc(NC(=O)C(=S)NN2C(=O)/C(=C\c3ccc([N+](=O)[O-])o3)SC2=S)ccc1-n1cnnn1
melting point: 161 to 162 °C
--
compound smiles: O=C(Nc1ccc(O)cc1)C(=S)NN1C(=O)C(=Cc2cc(I)cc(I)c2O)SC1=S
melting point: 157 to 158 °C
--
compound smiles: COc1cc(NC(=O)C(=S)NN2C(=O)C(=Cc3cc(Cl)ccc3O)SC2=S)cc(OC)c1OC
melting point: 216 to 217 °C
--
compound smiles: O=C(Nc1ccc(F)cc1)C(=S)NN1C(=O)C(=Cc2ccc(Cl)cc2)SC1=S
melting point: 204 to 205 °C
--
compound smiles: COc1cc(NC(=O)C(=S)NN2C(=O)C(=Cc3cc(I)cc(I)c3O)SC2=S)cc(OC)c1OC
melting point: 235 to 236 °C
--
compound smiles: COc1ccc(NC(=O)C(=S)NN2C(=O)C(=Cc3ccc(Cl)cc3)SC2=S)cc1
melting point: 186 to 187 °C
--
compound smiles: O=C(Nc1ccc(Cl)cc1)C(=S)NN1C(=O)C(=Cc2ccc(Cl)cc2)SC1=S
melting point: 211 to 212 °C

----------
- tested on: human apurinic/apyrimidinic endonuclease 1 (APE1) (Homo sapiens)
- Construct: His; made in house
- Sequence (P27695 whole entry): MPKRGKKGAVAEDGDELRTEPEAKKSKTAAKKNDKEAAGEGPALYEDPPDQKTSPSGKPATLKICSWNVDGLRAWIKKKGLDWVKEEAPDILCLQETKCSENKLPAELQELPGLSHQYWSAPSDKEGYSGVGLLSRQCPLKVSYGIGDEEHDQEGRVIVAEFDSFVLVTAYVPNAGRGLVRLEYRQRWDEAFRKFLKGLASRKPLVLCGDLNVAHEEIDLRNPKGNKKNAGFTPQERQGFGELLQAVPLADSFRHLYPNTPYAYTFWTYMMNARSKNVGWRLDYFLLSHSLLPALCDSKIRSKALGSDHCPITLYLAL
- procedure details: APE1 inhibition assay
- Assay type: biochemical
- measurement parameters: read-out: Inhibition of APE1 catalytic activity IC50
pIC50: −log10 of the molar value.
quantity name: pIC50

compound smiles: O=C(Nc1ccc(O)cc1)C(=S)NN1C(=O)C(=Cc2cc(Cl)ccc2O)SC1=S
tested on: human apurinic/apyrimidinic endonuclease 1 (APE1) (Homo sapiens)
quantity name: pIC50
obs value: < 4.00
//
compound smiles: COc1cc(NC(=O)C(=S)NN2C(=O)C(=Cc3cccc([N+](=O)[O-])c3O)SC2=S)cc(OC)c1OC
tested on: human apurinic/apyrimidinic endonuclease 1 (APE1) (Homo sapiens)
quantity name: pIC50
obs value: < 4.00
//
compound smiles: COc1ccc(NC(=O)C(=S)NN2C(=O)C(=Cc3ccc(Cl)cc3)SC2=S)cc1
tested on: human apurinic/apyrimidinic endonuclease 1 (APE1) (Homo sapiens)
quantity name: pIC50
obs value: 4.33
//
compound smiles: CCN(CC)c1ccc(C=C2SC(=S)N(NC(=S)C(=O)Nc3cc(OC)c(OC)c(OC)c3)C2=O)c(O)c1
tested on: human apurinic/apyrimidinic endonuclease 1 (APE1) (Homo sapiens)
quantity name: pIC50
obs value: < 4.00
//
compound smiles: O=C(Nc1ccc(O)cc1)C(=S)NN1C(=O)C(=Cc2cc(Cl)cc(Cl)c2O)SC1=S
tested on: human apurinic/apyrimidinic endonuclease 1 (APE1) (Homo sapiens)
quantity name: pIC50
obs value: < 4.00
//
compound smiles: CCOc1cc(-n2cnnn2)c(OCC)cc1NC(=O)C(=S)NN1C(=O)C(=Cc2ccc([N+](=O)[O-])o2)SC1=S
tested on: human apurinic/apyrimidinic endonuclease 1 (APE1) (Homo sapiens)
quantity name: pIC50
obs value: < 4.00
//
compound smiles: O=C(Nc1ccc(O)cc1)C(=S)NN1C(=O)C(=Cc2cc(N=Nc3ccccc3)ccc2O)SC1=S
tested on: human apurinic/apyrimidinic endonuclease 1 (APE1) (Homo sapiens)
quantity name: pIC50
obs value: < 4.00
//
compound smiles: O=C(Nc1ccc(F)cc1)C(=S)NN1C(=O)C(=Cc2ccc(Cl)cc2)SC1=S
tested on: human apurinic/apyrimidinic endonuclease 1 (APE1) (Homo sapiens)
quantity name: pIC50
obs value: < 4.00
//
compound smiles: C=CCc1cccc(C=C2SC(=S)N(NC(=S)C(=O)Nc3ccc(O)cc3)C2=O)c1O
tested on: human apurinic/apyrimidinic endonuclease 1 (APE1) (Homo sapiens)
quantity name: pIC50
obs value: < 4.00
//
compound smiles: O=C(Nc1cc(C(F)(F)F)cc(C(F)(F)F)c1)C(=S)NN1C(=O)C(=Cc2ccc([N+](=O)[O-])o2)SC1=S
tested on: human apurinic/apyrimidinic endonuclease 1 (APE1) (Homo sapiens)
quantity name: pIC50
obs value: < 4.00
//
compound smiles: O=C(Nc1ccc(F)cc1)C(=S)NN1C(=O)C(=Cc2ccc([N+](=O)[O-])o2)SC1=S
tested on: human apurinic/apyrimidinic endonuclease 1 (APE1) (Homo sapiens)
quantity name: pIC50
obs value: 4.05
//
compound smiles: O=C(Nc1ccc(O)cc1)C(=S)NN1C(=O)C(=Cc2cc(Br)cc(Br)c2O)SC1=S
tested on: human apurinic/apyrimidinic endonuclease 1 (APE1) (Homo sapiens)
quantity name: pIC50
obs value: < 4.00
